Entry source: paper PMC5700166

- Study target: GST-Dm-Relish (Drosophila melanogaster, UniProt Q94527 99-473)
- Sequence: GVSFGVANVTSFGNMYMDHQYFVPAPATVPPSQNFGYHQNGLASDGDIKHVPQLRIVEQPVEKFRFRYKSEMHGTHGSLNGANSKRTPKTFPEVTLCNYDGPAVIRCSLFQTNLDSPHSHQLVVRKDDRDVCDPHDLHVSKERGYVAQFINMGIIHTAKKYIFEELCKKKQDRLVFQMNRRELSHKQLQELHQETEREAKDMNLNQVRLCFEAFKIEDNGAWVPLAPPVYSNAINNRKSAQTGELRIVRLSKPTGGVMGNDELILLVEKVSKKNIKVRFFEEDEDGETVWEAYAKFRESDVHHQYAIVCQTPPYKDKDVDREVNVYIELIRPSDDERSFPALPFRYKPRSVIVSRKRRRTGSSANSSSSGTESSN
- Protocol summary: protein-binding microarray (PBM); PBM: ~300 nM protein, 6 mM HEPES pH 7.8, 80 mM KCl, 0.5 mM EDTA, 0.5 mM EGTA, 6% glycerol, 35 ng/ul poly-dIdC, 1% milk, 1 h, room temperature; Ap Aiptasia and Nv Nematostella (sea anemones) / Co Capsaspora / Aq Amphimedon (sponge) / Dm Drosophila / Hu human; RHD is the Rel homology domain; high values mean tight binding
- Condition: dsDNA, one strand shown
This listing pairs sequences with measured binding signal.

| Biopolymer sequence | Study target | binding signal |
| --- | --- | --- |
| CCGATTAACATCAGGGAGTTTACTGATGTTAATCGGGTCTTGATTCGCTTGACGCTGCTG | GST-Dm-Relish (Drosophila melanogaster, UniProt Q94527 99-473) | 5.53 z-score |
| CCGATTAACATCAAGGGGGTAAATGATGTTAATCGGGTCTTGATTCGCTTGACGCTGCTG | GST-Dm-Relish (Drosophila melanogaster, UniProt Q94527 99-473) | 2.72 z-score |
| CCGATTAACATCACTATATCCCCTGATGTTAATCGGGTCTTGATTCGCTTGACGCTGCTG | GST-Dm-Relish (Drosophila melanogaster, UniProt Q94527 99-473) | 2.01 z-score |
| CCGATTAACATCAAAAATACCCATGATGTTAATCGGGTCTTGATTCGCTTGACGCTGCTG | GST-Dm-Relish (Drosophila melanogaster, UniProt Q94527 99-473) | 5.48 z-score |
| CCGATTAACATCAGAAATTCCCATGATGTTAATCGGGTCTTGATTCGCTTGACGCTGCTG | GST-Dm-Relish (Drosophila melanogaster, UniProt Q94527 99-473) | 5.05 z-score |
| CCGATTAACATCAGGGGATTCTATGATGTTAATCGGGTCTTGATTCGCTTGACGCTGCTG | GST-Dm-Relish (Drosophila melanogaster, UniProt Q94527 99-473) | 7.72 z-score |
| CCGATTAACATCAGGGGGATACATGATGTTAATCGGGTCTTGATTCGCTTGACGCTGCTG | GST-Dm-Relish (Drosophila melanogaster, UniProt Q94527 99-473) | 3.6 z-score |
| CCGATTAACATCAGTACATTCCATGATGTTAATCGGGTCTTGATTCGCTTGACGCTGCTG | GST-Dm-Relish (Drosophila melanogaster, UniProt Q94527 99-473) | 2.01 z-score |
| CCGATTAACATCAAATCCCCCCATGATGTTAATCGGGTCTTGATTCGCTTGACGCTGCTG | GST-Dm-Relish (Drosophila melanogaster, UniProt Q94527 99-473) | 7.66 z-score |
| CCGATTAACATCAGAAAGTCCCCTGATGTTAATCGGGTCTTGATTCGCTTGACGCTGCTG | GST-Dm-Relish (Drosophila melanogaster, UniProt Q94527 99-473) | 9.11 z-score |
| CCGATTAACATCAAGGGGGATACTGATGTTAATCGGGTCTTGATTCGCTTGACGCTGCTG | GST-Dm-Relish (Drosophila melanogaster, UniProt Q94527 99-473) | 3.41 z-score |
| CCGATTAACATCAGGGCGCCCCCTGATGTTAATCGGGTCTTGATTCGCTTGACGCTGCTG | GST-Dm-Relish (Drosophila melanogaster, UniProt Q94527 99-473) | 5.55 z-score |
| CCGATTAACATCACGGGAACTCCTGATGTTAATCGGGTCTTGATTCGCTTGACGCTGCTG | GST-Dm-Relish (Drosophila melanogaster, UniProt Q94527 99-473) | 6.49 z-score |
| CCGATTAACATCAGGGGACTCCATGATGTTAATCGGGTCTTGATTCGCTTGACGCTGCTG | GST-Dm-Relish (Drosophila melanogaster, UniProt Q94527 99-473) | 7.69 z-score |
| CCGATTAACATCAAACTCCCCCCTGATGTTAATCGGGTCTTGATTCGCTTGACGCTGCTG | GST-Dm-Relish (Drosophila melanogaster, UniProt Q94527 99-473) | 7.11 z-score |
| CCGATTAACATCAGGGATCACCCTGATGTTAATCGGGTCTTGATTCGCTTGACGCTGCTG | GST-Dm-Relish (Drosophila melanogaster, UniProt Q94527 99-473) | 6.12 z-score |
| CCGATTAACATCAAATTTTTCCCTGATGTTAATCGGGTCTTGATTCGCTTGACGCTGCTG | GST-Dm-Relish (Drosophila melanogaster, UniProt Q94527 99-473) | 2.35 z-score |
| CCGATTAACATCACAAGTTTCCCTGATGTTAATCGGGTCTTGATTCGCTTGACGCTGCTG | GST-Dm-Relish (Drosophila melanogaster, UniProt Q94527 99-473) | 2.52 z-score |
